Target: Sap3 of Candida albicans (Candida albicans, UniProt P0CY29)
Sequence (P0CY29 59-398): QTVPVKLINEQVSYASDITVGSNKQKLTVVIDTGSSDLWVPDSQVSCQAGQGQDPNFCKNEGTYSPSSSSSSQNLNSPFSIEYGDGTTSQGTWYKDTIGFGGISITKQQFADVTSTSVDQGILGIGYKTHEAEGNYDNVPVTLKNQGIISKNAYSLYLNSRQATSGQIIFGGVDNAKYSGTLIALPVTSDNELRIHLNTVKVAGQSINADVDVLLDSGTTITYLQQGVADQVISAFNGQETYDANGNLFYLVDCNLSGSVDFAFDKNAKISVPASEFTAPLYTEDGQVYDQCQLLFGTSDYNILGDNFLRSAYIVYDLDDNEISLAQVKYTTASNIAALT
Non-standard residues stand in square brackets, D forms with d. Residues, ends and D or L forms follow the SMILES beside them. *: point of attachment. Abu(4,4,4-F3) = N[C@@H](CC(F)(F)F)C(=O)O; Phe(3-F) = N[C@@H](Cc1cccc(F)c1)C(=O)O; Phe(4-F) = N[C@@H](Cc1ccc(F)cc1)C(=O)O; Sta = CC(C)C[C@H](N)[C@@H](O)CC(=O)O; Isovaleryl = CC(C)CC(=O)*; Dab = NCC[C@H](N)C(=O)O
Readout Kind: IC50

Use these answered entries as a reference point.
CC(C)CC(=O)N[C@H](C(=O)N[C@H](C(=O)N[C@@H](CC(C)C)[C@@H](O)CC(=O)N[C@@H](CCN)C(=O)N[C@@H](CC(C)C)[C@@H](O)CC(=O)O)C(C)C)C(C)C [P1'(Dab)-pepstatin, (N-Iva-Val)-Val-Sta-Dab-Sta] (Isovaleryl-VV[Sta][Dab][Sta]-OH) :: ~20 nM
CC(C)CC(=O)N[C@H](C(=O)N[C@@H](CC(F)(F)F)C(=O)N[C@@H](CC(C)C)[C@@H](O)CC(=O)N[C@@H](C)C(=O)N[C@@H](CC(C)C)[C@@H](O)CC(=O)O)C(C)C [P2(TfeGly)-pepstatin, (N-Iva-Val)-TfeGly-Sta-Ala-Sta] (Isovaleryl-V[Abu(4,4,4-F3)][Sta]A[Sta]-OH) :: < 5 nM

Q) State the recorded IC50 for this entry: CC(C)CC(=O)N[C@H](C(=O)N[C@@H](CCCCN)C(=O)N[C@@H](CC(C)C)[C@@H](O)CC(=O)N[C@@H](C)C(=O)N[C@@H](CC(C)C)[C@@H](O)CC(=O)O)C(C)C [P2(Lys)-pepstatin, (N-Iva-Val)-Lys-Sta-Ala-Sta] (Isovaleryl-VK[Sta]A[Sta]-OH)
A) ~100 nM

Q) Follow-up entry: CC(C)CC(=O)N[C@@H](Cc1cccc(F)c1)C(=O)N[C@H](C(=O)N[C@@H](CC(C)C)[C@@H](O)CC(=O)N[C@@H](C)C(=O)N[C@@H](CC(C)C)[C@@H](O)CC(=O)O)C(C)C [P3(m-FPhe)-pepstatin, (N-Iva-mFPhe)-Val-Sta-Ala-Sta] (Isovaleryl-[Phe(3-F)]V[Sta]A[Sta]-OH)
A) ~10 nM

Q) What about this molecule? CC(C)CC(=O)N[C@@H](Cc1ccc(F)cc1)C(=O)N[C@H](C(=O)N[C@@H](CC(C)C)[C@@H](O)CC(=O)N[C@@H](C)C(=O)N[C@@H](CC(C)C)[C@@H](O)CC(=O)O)C(C)C [P3(p-FPhe)-pepstatin, (N-Iva-pFPhe)-Val-Sta-Ala-Sta] (Isovaleryl-[Phe(4-F)]V[Sta]A[Sta]-OH)
A) < 5 nM
